Tested on: U2OS
Experimental Protocol: Multiplex assay against U2OS
Format: toxicity, cell-based
Applied Conditions: human, 12 h, 1 µM, compound concentration 1 uM, replicate 1
# Population Fragmented Nuclei (%) per entry

Consider the following illustrative entries.
Compound | Population Fragmented Nuclei (%)
C[C@H](N)COC(=O)[C@@H](CCCCN)NC(=O)Cc1c(-c2ccc3ccccc3c2)[nH]c2c1ccc1ccccc12 | 26%
Br.CS(=O)(=O)Nc1c(O)ccc2c1CCCC2C1=NCCN1 (stereo not drawn) | 20%
COc1ccccc1N1CCN(C[C@@H](C(=O)NC(C)(C)C)c2ccccc2)CC1.Cl.Cl | 29%
O=C(CCCc1ccccc1)Nc1nc2ccccc2c(=O)s1 | 26%
CC(=O)Nc1cccc2c1c(Sc1ccc(Cl)cc1)c(C)n2CC(=O)O | 24%
Cc1noc(-c2ccc(-c3ccc(CC(=O)O)cc3)cc2)c1NC(=O)O[C@H](C)c1ccccc1Cl | 21%

q: I am curious: what Population Fragmented Nuclei (%) value has been reported for O=C(NCCN1CCC(n2c(=O)[nH]c3cc(Cl)ccc32)CC1)c1ccc(F)cc1 [HALOPEMIDE] ?
a: 24%

q: Looking for the measured Population Fragmented Nuclei (%) of "Cc1cccc(NC(=O)CN2CCC(c3ccccn3)CC2)c1.Cl.Cl" , can you help?
a: 27%
